Experiment: Toxicity liver stage against HepG2, at 10uM
Format: cell-based
Set-up: test concentration 10 uM, cell line HepG2-A16-CD81EGFP
Settings: human, HepG2-A16-CD81EGFP cells; read-out: INHIBITION
Entries and their cytotoxicity at 10 µM
Give just the numeric value; % need not be written.

- MOLECULE: "CCN(C(C)=O)C1CCN(c2nccc(C3CCCC3)n2)C1 (configuration not stated)"
  ENDPOINT UNIT: "%"
  cytotoxicity at 10 µM: -5.35
- MOLECULE: "CC1CCN(c2ccc(=O)n(CC(=O)N(C)Cc3ccccc3)n2)CC1"
  ENDPOINT UNIT: "%"
  cytotoxicity at 10 µM: 4.84
- MOLECULE: "O=C(NCc1ccccn1)c1nnn(-c2ccc(Br)cc2)n1"
  ENDPOINT UNIT: "%"
  cytotoxicity at 10 µM: 1.47
- MOLECULE: "O=C(c1ccnnc1)N1CC[C@H]2[C@H]1CCN2S(=O)(=O)C1CC1"
  ENDPOINT UNIT: "%"
  cytotoxicity at 10 µM: -143

Req: So what does the record say about cytotoxicity at 10 µM for `Cn1cccc1C(=O)N1CCC2(CC1)CC(N1CCOCC1)C2` ?
Resp: -8.25

Req: So what does the record say about cytotoxicity at 10 µM for O=C(C1CCCC1)N1CCCC(c2nc(O)cc(-c3ccncc3)n2)C1 (configuration not stated) ?
Resp: -16.9

Req: So what does the record say about cytotoxicity at 10 µM for `CCCS(=O)(=O)c1ccc(N2CCC(Cc3ccccc3)CC2)nn1` ?
Resp: -7.91

Req: So what does the record say about cytotoxicity at 10 µM for `CCn1cc(-n2cc3nc(N4CCC(O)CC4)[nH]cc-3c2=O)cn1` ?
Resp: 5.01

Req: So what does the record say about cytotoxicity at 10 µM for `CCCN1CCc2[nH]cnc2C12CCN(C(=O)CCn1cccn1)CC2` ?
Resp: 7.36

Req: So what does the record say about cytotoxicity at 10 µM for `COc1cc(C)nc(N2CCN(C(=O)CCc3ccncc3)CC2)n1` ?
Resp: -5

Req: So what does the record say about cytotoxicity at 10 µM for `CN(C)C(=O)N1C[C@H]2CC[C@@H](C1)N(C(=O)c1cccc(N(C)C)c1)C2` ?
Resp: 0.502

Req: So what does the record say about cytotoxicity at 10 µM for Cc1cnn(C2CCCN(C(=O)c3cnc4ccccc4n3)C2)c1 (configuration not stated) ?
Resp: -10.7

Req: So what does the record say about cytotoxicity at 10 µM for `Cn1cnc2c1CCN(Cc1csc(-c3ccccc3)n1)C2` ?
Resp: -1.04

Req: So what does the record say about cytotoxicity at 10 µM for COCCN1CCCC2(CCN(C(=O)c3cnc(O)cn3)C2)C1=O (configuration not stated) ?
Resp: 0.0942

Data origin, for the record: ChEMBL document CHEMBL4513216
